Hey, just so you know, these numbers are from PubChem BioAssay (NCI).

system: MDA-MB-231 breast; assay: NCI-60 one-dose screen, 48 h; settings: 10 µM
This is part of a sample that, as a whole, favours compounds with a hit. Of some 83,000 tested, about 20% had one in any assay. Active and inactive are the calls of the source. Rule for the calls: active = growth percent below 10; inactive = the rest.
Returns: one label drawn from active, inactive

Each compound tested received a call. Report the one for O=C1C=C(O)c2ccccc2C1=O.[Ag] .
inactive

Identify the outcome logged in this assay for the compound shown: NC(=O)SCC(=O)NNc1ccccc1
inactive

What was the test verdict on CC(=O)OCC(OC(C)=O)C(OC(C)=O)C(OC(C)=O)C(OC(C)=O)C(/C=N/Nc1ccccc1)=N/Nc1ccccc1 (stereo unspecified) ?
inactive

Per the assay record, what outcome was assigned to Oc1ccc(N=Nc2ccccn2)c(O)c1 ?
inactive

Outcome? COc1cccc2c1C(=O)c1c(O)c3c(c(O)c1C2=O)C[C@@](O)(C(C)=O)C[C@@H]3OC1CC(N)C(O)C(C)O1 (stereo partly specified)
active

Consider the record given below.
Answer briefly: the call reported for CCO/C=C1\SC(=S)N(c2cccc(O)c2)C1=O in this assay.
inactive
